test system: anesthetized dog; experiment: Effect on electrocardiogram of anesthetized dog; type: in vivo; details: Individual 1 (male), 0.6 mg/kg/10 min i.v., 0 min (immediately before start of administration)
Attribute Measured: QT interval
# include the unit after the value

Test system anesthetized dog; read-out QT interval; what value for COc1cc(CN[C@@H](C)[C@H](O)c2ccc(O)c(NS(C)(=O)=O)c2)cc(OC)c1 [Example 1] ?
241 ms

###

test system: anesthetized dog; assay: Effect on electrocardiogram of anesthetized dog; format: in vivo; conditions: Individual 1 (male), 0.6 mg/kg/10 min i.v., 10 min after start of administration
Attribute Measured: QT interval (ms)
Please state the figure in ms; there is no need to write the unit.

Which QT interval value is on record for COc1cc(CN[C@@H](C)[C@H](O)c2ccc(O)c(NS(C)(=O)=O)c2)cc(OC)c1 ?
210

###

system: anesthetized dog; assay: Effect on electrocardiogram of anesthetized dog; format: in vivo; conditions: Individual 1 (male), 6 mg/kg/10 min i.v., 0 min (immediately before start of administration); Fridericia
Attribute Measured: QTc (ms)
All answers are understood in ms, so give the number only.

Find the recorded QTc belonging to COc1cc(CN[C@@H](C)[C@H](O)c2ccc(O)c(NS(C)(=O)=O)c2)cc(OC)c1 [Example 1] and report it.
296

###

tested on: anesthetized dog; assay: Effect on electrocardiogram of anesthetized dog; assay type: in vivo; conditions: Individual 2 (female), 6 mg/kg/10 min i.v., 10 min after start of administration
Attribute Measured: QT interval (ms)
Numeric only. Scale: ms

Requested read-out QT interval, target or system anesthetized dog, entry COc1cc(CN[C@@H](C)[C@H](O)c2ccc(O)c(NS(C)(=O)=O)c2)cc(OC)c1 [Example 1]
211

###

test system: anesthetized dog; test: Effect on electrocardiogram of anesthetized dog; assay type: in vivo; settings: Individual 2 (female), 2 mg/kg/10 min i.v., 10 min after start of administration
Attribute Measured: QT interval

Tell me reported QT interval for COc1cc(CN[C@@H](C)[C@H](O)c2ccc(O)c(NS(C)(=O)=O)c2)cc(OC)c1 [Example 1] , tested with anesthetized dog.
210 ms

###

system: anesthetized dog; assay: Effect on electrocardiogram of anesthetized dog; format: in vivo; details: Individual 1 (male), 2 mg/kg/10 min i.v., 10 min after start of administration
Attribute Measured: QT interval (ms)
Write the number in ms without appending the unit.

Quick check: QT interval of COc1cc(CN[C@@H](C)[C@H](O)c2ccc(O)c(NS(C)(=O)=O)c2)cc(OC)c1 [Example 1] ?
203

###

tested on: anesthetized dog; assay: Effect on electrocardiogram of anesthetized dog; format: in vivo; settings: Individual 1 (male), 0.6 mg/kg/10 min i.v., 10 min after start of administration; Fridericia
Attribute Measured: QTc (ms)
Respond numerically; units are ms and should not be typed.

Quick one: QTc for COc1cc(CN[C@@H](C)[C@H](O)c2ccc(O)c(NS(C)(=O)=O)c2)cc(OC)c1 [Example 1] ?
287

###

system: anesthetized dog; experiment: Effect on electrocardiogram of anesthetized dog; type: in vivo; conditions: Individual 2 (female), 0.6 mg/kg/10 min i.v., 60 min after start of administration; Fridericia
Attribute Measured: QTc (ms)
Unit ms implied. Number only.

Field request: QTc | item: COc1cc(CN[C@@H](C)[C@H](O)c2ccc(O)c(NS(C)(=O)=O)c2)cc(OC)c1
292
